# BTK kinase (Homo sapiens (Human)): pIC50 values follow
# Sequence (Q06187 whole entry): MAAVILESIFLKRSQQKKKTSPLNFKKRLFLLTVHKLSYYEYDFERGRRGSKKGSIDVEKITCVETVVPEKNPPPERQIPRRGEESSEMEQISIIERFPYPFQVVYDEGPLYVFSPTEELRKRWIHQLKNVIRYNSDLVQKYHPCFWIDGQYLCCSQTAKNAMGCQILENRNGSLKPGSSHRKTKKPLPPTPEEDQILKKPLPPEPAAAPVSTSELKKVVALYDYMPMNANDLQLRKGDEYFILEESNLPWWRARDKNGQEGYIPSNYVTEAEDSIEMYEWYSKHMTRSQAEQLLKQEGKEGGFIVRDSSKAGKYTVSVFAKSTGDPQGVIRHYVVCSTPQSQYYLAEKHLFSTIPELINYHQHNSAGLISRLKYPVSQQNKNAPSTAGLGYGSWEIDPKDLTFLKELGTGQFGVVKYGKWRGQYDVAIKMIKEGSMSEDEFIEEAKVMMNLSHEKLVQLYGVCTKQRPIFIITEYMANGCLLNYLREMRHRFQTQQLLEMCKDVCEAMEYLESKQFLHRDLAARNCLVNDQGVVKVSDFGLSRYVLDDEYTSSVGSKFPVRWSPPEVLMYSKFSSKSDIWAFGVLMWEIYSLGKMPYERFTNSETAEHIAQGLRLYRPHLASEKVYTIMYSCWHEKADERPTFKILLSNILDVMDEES
pIC50: −log10 of the molar value.

Example cases with answers are listed next.
• C=CC(=O)N1CC[C@H](n2nc(-c3ccc(Oc4ccccc4)cc3)c(C(N)=O)c2N)C1 [25 (S-isomer)] = > 7.00
• C=CC(=O)N1CCCC(n2nc(-c3ccc(Oc4ccccc4)cc3)c(C(N)=O)c2NC)C1 (stereo not shown) [Example 1] = > 7.00
• CN(C)C/C=C/C(=O)N1CCCC(n2nc(-c3ccc(Oc4ccccc4)cc3)c(C(N)=O)c2N)C1 (stereo not shown) [Example 29] = > 7.00
• C=CC(=O)N1CCCC(n2nc(-c3ccc(Oc4ccccc4)cc3)c(C(N)=O)c2NCC)C1 (stereo not shown) [Example 6] = > 7.00
• C=CC(=O)N1CCC(n2nc(-c3ccc(Oc4ccccc4)cc3)c(C(N)=O)c2N)CC1 [Example 24] = > 7.00

Please turn your attention to the following entry.
Query: Observed pIC50 on BTK kinase (Homo sapiens (Human)) for C=CC(=O)N1CCCC(n2nc(-c3ccc(Oc4ccccc4)cc3)c(C(N)=O)c2NCCN2CCOCC2)C1 (stereo not shown) [Example 13] , please.
Reply: > 7.00
